test_protocol: Acute toxicity in po dosed albino Wistar rat assessed as mortality after 24 hrs
Assay type: organism-based
condition_details: in vivo
Provide the reported LD50 at 24 h of each item.

Reported LD50 at 24 h of CSCSc1nnc(-c2cn(-c3ccccc3)nc2CC(C)C)o1 : > 500 mg/kg

Reported LD50 at 24 h of CC(C)Cc1nn(-c2ccccc2)cc1-c1nnc(S)o1 : > 500 mg/kg

Reported LD50 at 24 h of CC(=O)OC[C@H]1O[C@@H](Sc2nnc(-c3cn(-c4ccccc4)nc3CC(C)C)o2)[C@H](OC(C)=O)[C@@H](OC(C)=O)[C@@H]1OC(C)=O : > 500 mg/kg
